# target.under.test: human DGKα (Homo sapiens, UniProt P23743)
# Construct: TVMV protease cleavage site (C); Hexa-His (C); made in house; host or cells: Sf9 insect cells (baculovirus, Bac-to-Bac)
# Sequence (P23743 with tags, fused parts or gaps): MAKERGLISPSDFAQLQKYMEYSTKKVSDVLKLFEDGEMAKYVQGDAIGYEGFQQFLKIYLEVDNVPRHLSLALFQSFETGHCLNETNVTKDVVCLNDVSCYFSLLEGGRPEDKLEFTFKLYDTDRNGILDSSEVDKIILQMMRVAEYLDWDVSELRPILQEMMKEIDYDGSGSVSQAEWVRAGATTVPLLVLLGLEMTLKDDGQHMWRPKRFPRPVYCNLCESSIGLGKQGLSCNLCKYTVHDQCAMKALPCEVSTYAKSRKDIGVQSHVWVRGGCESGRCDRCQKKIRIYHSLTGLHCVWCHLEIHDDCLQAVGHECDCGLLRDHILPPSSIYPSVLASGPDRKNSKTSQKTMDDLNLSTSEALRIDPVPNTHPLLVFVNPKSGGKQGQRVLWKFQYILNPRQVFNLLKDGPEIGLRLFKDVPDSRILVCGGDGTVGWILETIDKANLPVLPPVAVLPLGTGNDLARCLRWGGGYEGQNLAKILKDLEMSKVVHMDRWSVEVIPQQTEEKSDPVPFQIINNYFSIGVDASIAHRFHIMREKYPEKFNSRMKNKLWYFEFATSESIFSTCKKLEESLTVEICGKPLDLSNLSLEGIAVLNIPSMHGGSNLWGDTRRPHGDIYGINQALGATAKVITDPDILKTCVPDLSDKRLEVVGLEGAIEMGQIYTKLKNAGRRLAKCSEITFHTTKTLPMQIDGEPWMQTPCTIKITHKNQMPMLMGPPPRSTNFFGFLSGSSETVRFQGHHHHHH
# test.method.notes: DGKα LIPGLO assay (extruded liposome substrate), in vitro DGK inhibition
# Type: biochemical
# experimental.parameters: DGKα liposome (LIPGLO) assay; read-out: DGKa LIPGLO IC50
pIC50: −log10 of the molar value.
quantity.measured: pIC50

(P) Cc1cccc(C(c2ccc(F)cc2)N2CCN(c3c(C#N)c(=O)n(C)c4ccc(C#N)nc34)C[C@H]2C)n1 (single isomer, unassigned) [Example 905]
(Q) C[C@@H]1CN(c2c(C#N)c(=O)n(C)c3ccc(C#N)nc23)[C@@H](C)CN1C(c1ccc(F)cc1)c1ncccc1F (single isomer, unassigned) [Example 821]
Which value of pIC50 is numerically greater: that of P or that of Q ? # respond with the chosen item's label
Q

(P) C[C@@H]1CN(c2c(C#N)c(=O)n(C)c3ccc(C#N)nc23)CCN1Cc1ccc(-c2ccccc2)cc1 [Example 994]
(Q) CC(c1ccc(Cl)cc1)N1CCN(c2c(C#N)c(=O)n(C)c3ccc(C#N)nc23)C[C@H]1C (single isomer, unassigned) [Example 978]
(R) C[C@@H]1CN(c2c(C#N)c(=O)n(C)c3ccc(C#N)nc23)CCN1C(c1ccc(F)cc1)c1ccccc1F (stereo partly shown) [Example 882]
(S) C[C@@H]1CN(c2c(C#N)c(=O)n(C)c3ccc(C#N)nc23)CCN1C(c1ccc(F)cc1)c1cncn1C (single isomer, unassigned) [Example 1019]
(T) C[C@@H]1CN(c2cc(=O)n(C)c3ccc(C#N)nc23)[C@@H](C)CN1C(c1ccc(F)cc1)c1cscn1 (stereo partly shown) [Example 722]
Put the items in sequence by pIC50, from largest down. The labels, placed in the requested order, form the answer.
T, R, Q, P, S

(1) CC(c1ccc(OC(F)(F)F)cc1)N1CCN(c2c(C#N)c(=O)n(C)c3ccc(C#N)nc23)C[C@H]1C (single isomer, unassigned) [Example 962]
(2) Cc1ccc(C)c(C(C)N2CCN(c3c(C#N)c(=O)n(C)c4ccc(C#N)nc34)C[C@H]2C)c1 (single isomer, unassigned) [Example 977]
(3) C[C@@H]1CN(c2c(C#N)c(=O)n(C)c3ccc(C#N)nc23)CCN1Cc1ccccn1 [Example 990]
Arrange the 3 entries by pIC50 so the values rise. The labels, placed in the requested order, form the answer.
2, 1, 3
(2: 4.32, 1: 5.82, 3: 6.13)

(I) C[C@@H]1CN(c2c(C#N)c(=O)n(C)c3ccc(C#N)nc23)[C@@H](C)CN1C(c1ccc(F)cc1)c1ccc(C(F)(F)F)cn1 (single isomer, unassigned) [Example 837]
(II) CC(c1ccccc1F)N1C[C@H](C)N(c2c(C#N)c(=O)n(C)c3ccc(C#N)nc23)C[C@H]1C (single isomer, unassigned) [Example 798]
Which value of pIC50 is numerically greater: that of I or that of II ? # respond with the chosen item's label
I
(I: 5.24, II: 5.01)

* * *

# target.under.test: human DGKζ (Homo sapiens, UniProt Q13574)
# Construct: TVMV protease cleavage site (C); Hexa-His (C); made in house; host or cells: Sf9 insect cells (baculovirus, Bac-to-Bac)
# Sequence (Q13574 with tags, fused parts or gaps isoform Q13574-4): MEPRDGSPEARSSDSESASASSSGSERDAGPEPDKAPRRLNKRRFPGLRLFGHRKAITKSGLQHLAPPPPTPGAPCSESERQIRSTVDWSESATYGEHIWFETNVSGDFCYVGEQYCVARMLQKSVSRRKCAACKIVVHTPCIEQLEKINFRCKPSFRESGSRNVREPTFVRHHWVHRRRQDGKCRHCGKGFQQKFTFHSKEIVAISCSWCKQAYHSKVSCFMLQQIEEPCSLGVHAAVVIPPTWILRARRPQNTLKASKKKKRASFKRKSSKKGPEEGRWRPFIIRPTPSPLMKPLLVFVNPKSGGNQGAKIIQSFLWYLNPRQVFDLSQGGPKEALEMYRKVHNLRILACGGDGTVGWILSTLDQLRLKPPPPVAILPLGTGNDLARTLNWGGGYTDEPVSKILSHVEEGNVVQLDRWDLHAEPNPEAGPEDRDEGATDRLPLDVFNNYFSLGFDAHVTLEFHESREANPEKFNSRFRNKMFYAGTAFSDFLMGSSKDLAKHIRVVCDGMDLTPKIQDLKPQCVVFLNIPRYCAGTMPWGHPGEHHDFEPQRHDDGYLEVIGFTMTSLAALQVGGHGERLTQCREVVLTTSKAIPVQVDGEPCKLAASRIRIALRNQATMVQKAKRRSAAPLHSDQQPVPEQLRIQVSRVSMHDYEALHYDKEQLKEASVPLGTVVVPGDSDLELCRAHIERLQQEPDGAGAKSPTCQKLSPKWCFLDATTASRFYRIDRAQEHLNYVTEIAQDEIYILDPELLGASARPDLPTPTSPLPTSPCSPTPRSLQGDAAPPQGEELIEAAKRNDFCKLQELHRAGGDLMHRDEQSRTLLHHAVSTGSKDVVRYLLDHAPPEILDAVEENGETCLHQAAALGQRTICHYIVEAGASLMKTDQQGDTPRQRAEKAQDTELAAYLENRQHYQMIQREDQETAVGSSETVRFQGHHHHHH
# test.method.notes: DGKζ LIPGLO assay (extruded liposome substrate), in vitro DGK inhibition
# Assay type: biochemical
# experimental.parameters: liposome (LIPGLO) assay; read-out: DGKz LIPGLO IC50
quantity.measured: IC50 (nM)

See these solved cases before continuing.
compound="Cn1c(=O)c(C#N)c(N2CCN(C(c3ccc(F)cc3)c3ccc(F)cc3)C(CO)C2)c2nc(C#N)ccc21 (single isomer, unassigned) [Example 16]" target_under_test="human DGKζ (Homo sapiens, UniProt Q13574)" reading=12000
compound="CCC(c1ccc(OC(F)(F)F)cc1)N1C[C@H](CC)N(c2cc(=O)n(C)c3ccc(C#N)nc23)C[C@H]1CC (single isomer, unassigned) [Example 1059]" target_under_test="human DGKζ (Homo sapiens, UniProt Q13574)" reading=44
compound="CC[C@@H]1CN(c2cc(=O)n(C)c3ccc(C#N)nc23)[C@@H](C)CN1C(c1ccc(F)cc1)c1nc(C2CC2)no1 (stereo partly shown) [Example 1117]" target_under_test="human DGKζ (Homo sapiens, UniProt Q13574)" reading=17
compound="C[C@@H]1CN(c2cc(=O)n(C)c3ccc(C#N)nc23)[C@@H](C)CN1Cc1c(Cl)cccc1C#N [Example 260]" target_under_test="human DGKζ (Homo sapiens, UniProt Q13574)" reading=1100
compound="COc1cc(CN2C[C@H](C)N(c3cc(=O)n(C)c4ccc(C#N)nc34)C[C@H]2C)cc(C(F)(F)F)n1 [Example 280]" target_under_test="human DGKζ (Homo sapiens, UniProt Q13574)" reading=7300
compound="COc1ccc2c(n1)c(N1C[C@@H](C)N(C(c3ccc(F)cc3)c3ccc(F)cc3)C[C@@H]1C)cc(=O)n2C [Example 241]" target_under_test="human DGKζ (Homo sapiens, UniProt Q13574)" reading=17000
compound="[2H]C(CC)(c1ccc(F)cc1)N1C[C@H](C)N(c2cc(=O)n(C)c3ccc(C#N)nc23)C[C@H]1C (single isomer, unassigned) [Example 575]" target_under_test="human DGKζ (Homo sapiens, UniProt Q13574)" reading=1600
compound="Cc1nccc(C(c2ccc(F)cc2)N2CCN(c3c(C#N)c(=O)n(C)c4ccc(C#N)nc34)C[C@H]2C)n1 (stereo partly shown) [Example 316]" target_under_test="human DGKζ (Homo sapiens, UniProt Q13574)" reading=930

(I) CC(C)C(=O)C1CN(c2cc(=O)n(C)c3ccc(C#N)nc23)CCN1C(c1ccc(F)cc1)c1ccc(F)cc1 (single isomer, unassigned) [Example 86]
(II) CSCC(c1ccc(F)cc1)N1C[C@H](C)N(c2cc(=O)n(C)c3ccc(C#N)nc23)C[C@H]1C (single isomer, unassigned) [Example 1319]
(III) COc1ccc2c(n1)c(N1C[C@@H](C)N(C(c3ccc(F)cc3)c3ccc(Cl)cc3)C[C@@H]1C)cc(=O)n2C (stereo partly shown) [Example 240]
(IV) C[C@@H]1CN(c2cc(=O)n(C)c3ccc(C#N)nc23)[C@@H](C)CN1C1(c2ccc(F)cc2)CC1 [Example 1454]
(V) C[C@H]1CN(C(c2ccc(F)cc2)c2ccon2)[C@H](CO)CN1c1cc(=O)n(C)c2ccc(C#N)nc12 (single isomer, unassigned) [Example 1391]
Arrange the 5 entries by IC50 so the values rise. The labels, placed in the requested order, form the answer.
II, I, V, III, IV
